# target_entity: Cytochrome P450 2C19 (Homo sapiens, UniProt P33261)
# Sequence (P33261 whole entry): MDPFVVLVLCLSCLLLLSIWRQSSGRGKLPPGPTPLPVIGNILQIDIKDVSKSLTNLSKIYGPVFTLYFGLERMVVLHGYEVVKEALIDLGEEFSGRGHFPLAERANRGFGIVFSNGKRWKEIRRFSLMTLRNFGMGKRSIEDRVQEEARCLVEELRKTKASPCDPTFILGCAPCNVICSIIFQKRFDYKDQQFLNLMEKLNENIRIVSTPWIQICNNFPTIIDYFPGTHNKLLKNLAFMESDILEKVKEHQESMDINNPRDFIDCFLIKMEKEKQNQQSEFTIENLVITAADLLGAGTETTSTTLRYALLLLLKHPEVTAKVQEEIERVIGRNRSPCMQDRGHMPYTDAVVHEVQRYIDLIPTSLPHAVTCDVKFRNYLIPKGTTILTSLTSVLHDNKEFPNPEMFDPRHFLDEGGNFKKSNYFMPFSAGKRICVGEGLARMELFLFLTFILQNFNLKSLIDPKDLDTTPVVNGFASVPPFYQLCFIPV
attribute_measured: IC50

Param readout = IC50; param system = Cytochrome P450 2C19 (Homo sapiens, UniProt P33261); param query = `C[C@@H]1CN(Cc2ccc3c(-c4cnn(C)c4)cc(C(N)=O)nc3c2)C[C@H](C(F)(F)F)O1` ; response: value > 26 µM

---

# assay_notes: Fraction unbound in monkey plasma
# Type: ADME, cell-free, Macaca mulatta
# experimental_conditions: rhesus monkey
attribute_measured: fraction unbound
Form: value (number only, do not type unit).

Item `C[C@@H]1CN(Cc2ccc3c(-c4cnn(C)c4)cc(C(N)=O)nc3c2)C[C@H](C(F)(F)F)O1` has what recorded fraction unbound? 0.043

---

# assay_notes: Oral bioavailability in dog at 0.5 mg/kg
# Type: ADME, organism-based, Canis lupus familiaris
# experimental_conditions: in vivo
attribute_measured: bioavailability
Express the reported value numerically, then name its unit.

Item `C[C@@H]1CN(Cc2ccc3c(-c4cnn(C)c4)cc(C(N)=O)nc3c2)C[C@H](C(F)(F)F)O1` has what recorded bioavailability? 34%

---

# target_entity: UniProt:P05177
# Sequence (P05177 whole entry): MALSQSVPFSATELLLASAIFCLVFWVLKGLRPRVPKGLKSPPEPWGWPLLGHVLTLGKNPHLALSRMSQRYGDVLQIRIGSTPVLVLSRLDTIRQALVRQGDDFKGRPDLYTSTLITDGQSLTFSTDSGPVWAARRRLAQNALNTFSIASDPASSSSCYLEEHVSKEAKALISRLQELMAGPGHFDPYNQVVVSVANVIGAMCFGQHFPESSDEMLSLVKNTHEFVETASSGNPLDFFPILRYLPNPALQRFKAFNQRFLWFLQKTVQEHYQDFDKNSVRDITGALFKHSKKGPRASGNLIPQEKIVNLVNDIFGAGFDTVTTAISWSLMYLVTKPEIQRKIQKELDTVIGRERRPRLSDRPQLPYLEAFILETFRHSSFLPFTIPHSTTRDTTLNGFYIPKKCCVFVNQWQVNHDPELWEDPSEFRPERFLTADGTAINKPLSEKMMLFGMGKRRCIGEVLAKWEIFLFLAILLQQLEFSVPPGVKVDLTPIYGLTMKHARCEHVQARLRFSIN
pIC50: −log10 of the molar value.
attribute_measured: pIC50

Item `C[C@@H]1CN(Cc2ccc3c(-c4cnn(C)c4)cc(C(N)=O)nc3c2)C[C@H](C(F)(F)F)O1` has what recorded pIC50? < 4.59

---

# assay_notes: Apparent permeability in […] LLC-MDR1 cell
# Type: ADME, cell-based
# experimental_conditions: LLC-PK1
Kindly apply the following: MET if Papp is less than 30 ×10⁻⁶ cm/s, NOT MET in every other case.

INSERT INTO assay_data (molecule, classification) VALUES
  ('CN(C)C(=O)C(C)(C)c1ccc2c(-c3ccc(F)cc3)cc(C(N)=O)nc2c1', 'NOT MET'),
  ('Cn1cc(Cc2ccc3c(-c4cnn(C)c4)cc(C(N)=O)nc3c2)cn1', 'NOT MET'),
  ('CC(C)(C(=O)N1CCOCC1)c1ccc2c(-c3ccc(F)cc3)cc(C(N)=O)nc2c1', 'NOT MET'),
  ('CN1CC=C(c2cc(C(N)=O)nc3cc(CN4C(=O)CCC4=O)ccc23)CC1', 'NOT MET'),
  ('Cn1cc(-c2cc(C(N)=O)nc3cc(CN4CCOC(C5CC5)C4)ccc23)cn1 (racemic)', 'MET'),
  ('NC(=O)c1cc(-c2ccc(F)cc2)c2ccc(CCc3cncnc3)cc2n1', 'NOT MET'),
  ('C[C@@H]1CN(Cc2ccc3c(-c4cnn(C)c4)cc(C(N)=O)nc3c2)C[C@H](C(F)(F)F)O1', 'NOT MET'),
  ('NC(=O)c1cc(N2CCOCC2)c2ccc(CN3C(=O)CCC3=O)cc2n1', 'NOT MET'),
  ('Cc1ncc(NCc2ccc3c(-c4ccc(F)cc4)cc(C(N)=O)nc3c2)cn1', 'NOT MET'),
  ('Cn1ccc(CCc2ccc3c(-c4ccc(F)cc4)cc(C(N)=O)nc3c2)n1', 'MET');

Threshold test, Papp < 30 ×10⁻⁶ cm/s: `NC(=O)c1cc(-c2ccc(F)cc2)c2ccc(CNCC(F)(F)F)cc2n1` MET

Threshold test, Papp < 30 ×10⁻⁶ cm/s: Cn1cc(-c2cc(C(N)=O)nc3cc(CN4CCNC(C(F)(F)F)C4)ccc23)cn1 (racemic) MET

Threshold test, Papp < 30 ×10⁻⁶ cm/s: `NC(=O)c1cc(-c2ccc(F)cc2)c2ccc(CN3CCOC3=O)cc2n1` NOT MET

---

This section presents compounds with their documented EC50 values.
# target_entity: Nuclear receptor subfamily 1 group I member 2 (Homo sapiens, UniProt O75469)
# Sequence (O75469 whole entry): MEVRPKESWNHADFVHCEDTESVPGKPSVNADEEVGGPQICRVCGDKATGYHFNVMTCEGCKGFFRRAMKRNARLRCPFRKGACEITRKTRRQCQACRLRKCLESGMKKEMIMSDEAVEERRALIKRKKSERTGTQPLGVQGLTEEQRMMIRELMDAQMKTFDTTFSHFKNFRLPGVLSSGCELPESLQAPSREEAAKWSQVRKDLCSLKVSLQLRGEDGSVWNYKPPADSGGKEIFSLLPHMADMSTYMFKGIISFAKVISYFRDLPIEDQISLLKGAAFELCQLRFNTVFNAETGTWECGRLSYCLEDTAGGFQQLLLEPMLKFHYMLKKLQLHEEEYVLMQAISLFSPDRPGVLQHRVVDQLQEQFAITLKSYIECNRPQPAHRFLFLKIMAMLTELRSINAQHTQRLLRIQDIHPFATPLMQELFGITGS
# assay_notes: Agonist activity at PXR (unknown origin)
Please reply with the bare figure in µM and do not write the unit itself.

Item `Cc1cnn(Cc2ccc3c(-c4ccc(F)cc4)cc(C(N)=O)nc3c2)c1` has what recorded EC50? 16.7

Item `Cn1ccc(CCc2ccc3c(-c4ccc(F)cc4)cc(C(N)=O)nc3c2)n1` has what recorded EC50? 9.2

Item CC(c1ccc2c(-c3cnn(C)c3)cc(C(N)=O)nc2c1)c1cnn(CC(F)(F)F)c1 (racemic) has what recorded EC50? 19

---

This section presents compounds with their documented log10 of IC50 values.
# target_entity: Metabotropic glutamate receptor 2 (Homo sapiens)
# Sequence (Q14416 whole entry): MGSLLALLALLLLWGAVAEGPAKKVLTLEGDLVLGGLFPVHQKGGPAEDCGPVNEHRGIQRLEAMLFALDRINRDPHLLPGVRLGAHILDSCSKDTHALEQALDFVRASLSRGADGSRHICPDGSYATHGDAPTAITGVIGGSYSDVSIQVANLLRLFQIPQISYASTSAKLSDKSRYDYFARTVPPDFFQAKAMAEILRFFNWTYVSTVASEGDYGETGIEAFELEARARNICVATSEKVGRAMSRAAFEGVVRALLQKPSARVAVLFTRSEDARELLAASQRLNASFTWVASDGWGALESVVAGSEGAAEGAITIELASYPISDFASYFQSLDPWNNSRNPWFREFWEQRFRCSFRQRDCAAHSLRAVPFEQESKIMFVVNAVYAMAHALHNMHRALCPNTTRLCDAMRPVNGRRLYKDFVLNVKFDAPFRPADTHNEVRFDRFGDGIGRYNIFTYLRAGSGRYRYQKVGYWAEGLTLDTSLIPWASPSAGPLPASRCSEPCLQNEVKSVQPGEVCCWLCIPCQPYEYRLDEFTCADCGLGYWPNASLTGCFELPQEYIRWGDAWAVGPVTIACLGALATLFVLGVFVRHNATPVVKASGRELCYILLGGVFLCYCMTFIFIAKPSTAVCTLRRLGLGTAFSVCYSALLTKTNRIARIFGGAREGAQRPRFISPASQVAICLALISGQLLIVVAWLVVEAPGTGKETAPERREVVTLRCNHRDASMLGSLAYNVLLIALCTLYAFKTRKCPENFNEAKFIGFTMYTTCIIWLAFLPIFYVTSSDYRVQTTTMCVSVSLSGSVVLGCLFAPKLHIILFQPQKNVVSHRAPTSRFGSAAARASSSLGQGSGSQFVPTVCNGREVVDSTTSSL
# assay_notes: Negative allosteric modulation at human mGluR2 receptor stably expressed in DHFR null CHO cells co-expressing Galpha16 assessed as effect on intracellular calcium flux measured after 5 min by Fluo-4AM dye based FLIPR analysis
Log10 applied to IC50; unit prior to transform: nM.

INSERT INTO assay_data (compound, attribute_measured, measured) VALUES
  ('CC(c1ccc2c(-c3cnn(C)c3)cc(C(N)=O)nc2c1)c1cnn(CC(F)(F)F)c1 (racemic)', 'log10 of IC50', 1.04);

# next compound below
Item CC(C)C1CN(Cc2ccc3c(-c4cnn(C)c4)cc(C(N)=O)nc3c2)CCO1 (racemic) has what recorded log10 of IC50? 1.36

---

# assay_notes: Clearance in dog at 0.25 mg/kg, iv
# Type: ADME, organism-based, Canis lupus familiaris
# experimental_conditions: in vivo
attribute_measured: clearance (mL/min/kg)
Please reply with the bare figure in mL/min/kg and do not write the unit itself.

Item `C[C@@H]1CN(Cc2ccc3c(-c4cnn(C)c4)cc(C(N)=O)nc3c2)C[C@H](C(F)(F)F)O1` has what recorded clearance? 24

---

# assay_notes: Apparent permeability in […] LLC-MDR1 cell
# Assay type: ADME, cell-based
# experimental_conditions: LLC-PK1
attribute_measured: Papp (×10⁻⁶ cm/s)
Please reply with the bare figure in ×10⁻⁶ cm/s and do not write the unit itself.

Reference set (4 entries):
INSERT INTO assay_data (molecule, attribute_measured, measured) VALUES
  ('CC(c1ccc2c(-c3cnn(C)c3)cc(C(N)=O)nc2c1)c1cnn(CC(F)(F)F)c1 (racemic)', 'Papp', 29),
  ('Cn1cc(-c2cc(C(N)=O)nc3cc(CN4CCO[C@@H](C(F)(F)F)C4)ccc23)cn1', 'Papp', 29),
  ('NC(=O)c1cc(-c2ccc(F)cc2)c2ccc(CN3CCOC(C(F)(F)F)C3)cc2n1 (racemic)', 'Papp', 24),
  ('COC1CC=C(c2cc(C(N)=O)nc3cc(CN4C(=O)CCC4=O)ccc23)CC1 (racemic)', 'Papp', 32);

# next molecule below
Item `CCn1cc(-c2cc(C(N)=O)nc3cc(CN4C(=O)CCC4=O)ccc23)cn1` has what recorded Papp? 24

---

# assay_notes: Solubility of the compound at pH 7
# Type: physicochemical
# experimental_conditions: buffer, read-out: solubility
This section presents compounds with their documented solubility values.
Please reply with the bare figure in µM and do not write the unit itself.

Reference set (6 entries):
INSERT INTO measurements (compound, measured) VALUES
  ('Cc1ncc(-c2cc(C(N)=O)nc3cc(CN4C(=O)CCC4=O)ccc23)s1', 64),
  ('Cn1cc(-c2cc(C(N)=O)nc3cc(CN4CCNC(C(F)(F)F)C4)ccc23)cn1 (racemic)', 175),
  ('Cc1cc(NCc2ccc3c(-c4ccc(F)cc4)cc(C(N)=O)nc3c2)no1', 3),
  ('Cn1cc(-c2cc(C(N)=O)nc3cc(CN4CCO[C@@H](C(F)(F)F)C4)ccc23)cn1', 142),
  ('Cc1ncc(NCc2ccc3c(-c4ccc(F)cc4)cc(C(N)=O)nc3c2)cn1', 7),
  ('Cn1cc(Cc2ccc3c(-c4cnn(C)c4)cc(C(N)=O)nc3c2)cn1', 105);

Item `CN1CC=C(c2cc(C(N)=O)nc3cc(CN4C(=O)CCC4=O)ccc23)CC1` has what recorded solubility? 203

Item NC(=O)c1cc(-c2ccc(F)cc2)c2ccc(CN3CCOC(C(F)(F)F)C3)cc2n1 (racemic) has what recorded solubility? 2

Item COC1CC=C(c2cc(C(N)=O)nc3cc(CN4C(=O)CCC4=O)ccc23)CC1 (racemic) has what recorded solubility? 125

Item Cn1cc(-c2cc(C(N)=O)nc3cc(CN4CCOC(C(F)F)C4)ccc23)cn1 (racemic) has what recorded solubility? 193

Item `NC(=O)c1cc(-c2ccc(F)cc2)c2ccc(CNCC(F)(F)F)cc2n1` has what recorded solubility? 6
